Where these numbers come from: patent US9655875B2

- System: human liver cancer cells HepG2
- assay-explanation: MTT growth inhibition of HepG2 cells (IC50)
- Type: cell-based
- experimental-context: 48 hrs of treatment
measurement-type: IC50
Mention the unit after the number when you answer.

Q: Query: IC50; subject: C[S+]([O-])CCCCN=C=S (stereo not shown)
Ans: 47.3 µM

---

- Tested on: human lung adenocarcinoma cells A549
- assay-explanation: MTT growth inhibition of A549 cells (IC50)
- Type: cell-based
- experimental-context: 48 hrs of treatment
measurement-type: pIC50
Give bare numbers, as −log10 of the molar value.

Q: What value of pIC50 on human lung adenocarcinoma cells A549 does C[S+]([O-])CCCCN=C=S (stereo not shown) have?
Ans: 4.83
